Reference source for all entries: the supplement of paper PMC6470124

Test Summary: LC retention time (Atlantis T3, 5-95% MeOH gradient, 0.1% formic acid); higher = more retained / less polar
Endpoint Name: LC retention time (min)
Kindly provide the numeric value in min only, without the unit symbol.

Record Clc1ccccc1C[NH+]1CCc2sccc2C1 . Reported LC retention time: 12.7

Record CCCC(CCC)(C(=O)[O-])C(=O)O . Reported LC retention time: 18.2

Record COc1cccc(C2(O)CCCCC2C[NH3+])c1 (centres undefined) . Reported LC retention time: 12.8

Record C[NH+]=CNc1ccc(C)cc1C . Reported LC retention time: 11.1

Record COc1ccc(CCC(=O)c2c(O)cc(OC3OC(CO)C(O)C(O)C3OC3OC(C)C(O)C(O)C3O)cc2O)cc1O (centres undefined) [Neohesperidin-dihydrochalcon] . Reported LC retention time: 16.3

Record COC(=O)NC(C(=O)NC(Cc1ccccc1)C(O)CN(Cc1ccc(-c2ccccn2)cc1)NC(=O)C(NC(=O)OC)C(C)(C)C)C(C)(C)C (centres undefined) . Reported LC retention time: 20.3

Record CC(C)N(C(=O)C(=O)[O-])c1ccccc1 . Reported LC retention time: 17.8

Record CC(C)N1C(=O)N(c2ccccc2)CSC1=NC(C)(C)C . Reported LC retention time: 22

Record O=C([O-])C(F)(F)C(F)(F)C(F)(F)C(F)(F)C(F)(F)F . Reported LC retention time: 18.8

* * *

Test Summary: absolute recovery over vacuum-assisted evaporative concentration; higher = better recovery
Applied Conditions: wastewater effluent; enrichment method: VEC
Endpoint Name: absolute recovery (%)
Kindly provide the numeric value in % only, without the unit symbol.

Record NC1=C(Cl)C(=O)c2ccccc2C1=O . Reported absolute recovery: 97

Record CC1CC2C3CCC4=CC(=O)C=CC4(C)C3(F)C(O)CC2(C)C1(O)C(=O)CO (centres undefined) [Betamethasone] . Reported absolute recovery: 104

Record CCCS(=O)(=O)[O-] [1-Propanesulfonate] . Reported absolute recovery: 107

Record CC(C)Nc1nc(N)nc(O)n1 [Atrazin-desethyl-2-hydroxy] . Reported absolute recovery: 107

Record CC[NH+](CC)CC(=O)Nc1c(C)cccc1C . Reported absolute recovery: 101

Record COP(=O)(OC)OC=C(Cl)Cl . Reported absolute recovery: 34.5

Record CS(=O)(=O)c1cc(C(F)(F)F)ccc1C(=O)c1cnoc1C1CC1 . Reported absolute recovery: 74.8

Record CC(C)=NOCCOC(=O)C(C)Oc1ccc(Oc2cnc3cc(Cl)ccc3n2)cc1 (centres undefined) . Reported absolute recovery: 68.4

Record Cc1cc(C)nc(Nc2ccccc2)n1 . Reported absolute recovery: 88.8

Record CCc1cccc2c3c([nH]c12)C(CC)(CC(=O)[O-])OCC3 (centres undefined) . Reported absolute recovery: 103

Record O=C(Nc1ccc(Cl)cc1)Nc1ccc(Cl)c(Cl)c1 . Reported absolute recovery: 113

Record NS(=O)(=O)c1cc(C(=O)[O-])c(NCc2ccco2)cc1Cl . Reported absolute recovery: 101

Record c1ccc2[nH]c(-c3cscn3)nc2c1 . Reported absolute recovery: 102

Record CCOc1nc2cccc(C(=O)[O-])c2n1Cc1ccc(-c2ccccc2-c2nnn[n-]2)cc1 . Reported absolute recovery: 104

Record Cc1c(N(C)C)c(=O)n(-c2ccccc2)n1C [4-Dimethylaminoantipyrin (=Aminopyrin)] . Reported absolute recovery: 89.8

Record N#Cc1c[nH]cc1-c1cccc2c1OC(F)(F)O2 . Reported absolute recovery: 116

Record CC(C)(Oc1ccc(Cl)cc1)C(=O)[O-] . Reported absolute recovery: 105

Record COC(=O)C(Cc1ccccc1)NC(=O)C([NH3+])CC(=O)[O-] (centres undefined) . Reported absolute recovery: 48

Record CC(C)c1ccc(NC(N)=O)cc1 . Reported absolute recovery: 102

Record O=C1NCCN1Cc1ccc(Cl)nc1 . Reported absolute recovery: 108

Record COc1cc(OC)nc(NC(=O)[N-]S(=O)(=O)c2ncccc2C(=O)N(C)C)n1 . Reported absolute recovery: 103

Record Cc1cccc(Nc2ccncc2S(=O)(=O)[N-]C(=O)NC(C)C)c1 . Reported absolute recovery: 103

Record [O-]n1nnc2ccccc21 [1-Hydroxybenzotriazole H] . Reported absolute recovery: 126

Record CC(Oc1ccc(Cl)cc1Cl)C(=O)[O-] (centres undefined) . Reported absolute recovery: 104

Record Fc1ccc(Oc2ccnc3cc(Cl)cc(Cl)c23)cc1 . Reported absolute recovery: 69.8

Record N#CCNC(=O)c1cnccc1C(F)(F)F . Reported absolute recovery: 99.6

Record O=c1ccn(C2OC(CO)C(O)C2(F)F)c(=O)[nH]1 (centres undefined) . Reported absolute recovery: 122

Record CC(C)(C)c1n[nH]c(=O)n(N)c1=O . Reported absolute recovery: 91.2

Record CCN(CC)C(=O)C(C)Oc1cccc2ccccc12 (centres undefined) . Reported absolute recovery: 88.4

Record CC1(C)SC(CNC(=O)C([NH3+])c2ccc(O)cc2)[NH2+]C1C(=O)[O-] (centres undefined) . Reported absolute recovery: 59.2

Record NC(=O)Nc1ccc(Cl)c(Cl)c1 . Reported absolute recovery: 101

Record c1ccc2c(c1)Cc1ccccc1N1CC[NH2+]CC21 (centres undefined) . Reported absolute recovery: 94.1

Record COc1ccc2cc(C(C)C(=O)[O-])ccc2c1 (centres undefined) . Reported absolute recovery: 109

Record CC(C)(C)C(=O)C(Oc1ccc(Cl)cc1)n1ccnc1 (centres undefined) . Reported absolute recovery: 106

Record CC(=O)C1CCC2C3CCC4=CC(=O)CCC4(C)C3CCC12C (centres undefined) . Reported absolute recovery: 93.9

Record CC(C)[NH2+]CC(O)c1ccc(NS(C)(=O)=O)cc1 (centres undefined) . Reported absolute recovery: 104

Record CC(Cn1cnc2c(N)ncnc21)OCP(=O)([O-])O (centres undefined) . Reported absolute recovery: 105

Record CCC(C)c1cc([N+](=O)[O-])cc([N+](=O)[O-])c1[O-] (centres undefined) . Reported absolute recovery: 94.2

Record CCCC1COC(Cn2cncn2)(c2ccc(Cl)cc2Cl)O1 (centres undefined) . Reported absolute recovery: 104
